Origin of measurements: patent US20250340552A1

biological target: Cbl-B (Homo sapiens, UniProt Q13191); construct: MSD-Based Assay for Degradation of Cbl-B in THP-1 Cells; endogenous in cells; host or cells: THP-1 (title) / Jurkat (protocol text); experiment: MSD-based assay for degradation of Cbl-B in THP-1 cells; type: cell-based; conditions: THP-1
Sequence (Q13191 whole entry): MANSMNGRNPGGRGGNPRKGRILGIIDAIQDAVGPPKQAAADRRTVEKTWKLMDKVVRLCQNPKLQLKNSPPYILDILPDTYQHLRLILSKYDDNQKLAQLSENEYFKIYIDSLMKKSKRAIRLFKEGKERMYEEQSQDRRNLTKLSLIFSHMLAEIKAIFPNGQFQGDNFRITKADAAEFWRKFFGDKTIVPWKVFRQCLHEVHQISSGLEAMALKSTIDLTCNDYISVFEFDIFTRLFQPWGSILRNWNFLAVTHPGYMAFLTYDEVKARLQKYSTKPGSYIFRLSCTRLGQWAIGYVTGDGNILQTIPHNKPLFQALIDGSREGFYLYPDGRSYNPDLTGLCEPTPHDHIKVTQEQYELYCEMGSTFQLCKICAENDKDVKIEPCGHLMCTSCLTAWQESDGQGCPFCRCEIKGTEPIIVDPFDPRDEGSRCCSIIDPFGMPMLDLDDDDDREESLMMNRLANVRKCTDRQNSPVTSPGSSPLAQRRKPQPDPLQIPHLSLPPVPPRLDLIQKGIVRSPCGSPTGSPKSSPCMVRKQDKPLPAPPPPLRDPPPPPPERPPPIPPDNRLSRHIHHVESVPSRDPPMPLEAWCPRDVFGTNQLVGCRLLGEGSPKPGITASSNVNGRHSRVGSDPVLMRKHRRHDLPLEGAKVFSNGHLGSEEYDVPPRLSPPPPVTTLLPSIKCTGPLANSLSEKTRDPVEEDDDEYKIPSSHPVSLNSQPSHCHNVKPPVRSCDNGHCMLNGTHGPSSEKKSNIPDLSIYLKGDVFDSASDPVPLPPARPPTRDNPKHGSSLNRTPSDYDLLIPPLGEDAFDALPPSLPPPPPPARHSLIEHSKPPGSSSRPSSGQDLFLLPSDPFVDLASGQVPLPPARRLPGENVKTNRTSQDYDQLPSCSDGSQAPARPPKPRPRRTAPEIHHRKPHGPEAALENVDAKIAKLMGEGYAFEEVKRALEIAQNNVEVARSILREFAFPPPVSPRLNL
measured endpoint: Dmax

Reference set (8 entries):
>  <compound>
Cn1cnnc1[C@@H](c1cccc(-n2cc3c(C(F)(F)F)cc(CN4CCC(OCc5ccc(CN6CCN(c7ccc8c(c7)CN([C@@H]7CCC(=O)NC7=O)C8=O)CC6)cc5)CC4)cn3c2=O)c1)C1CCC1 (single isomer, unassigned)

>  <reported result>
30 to 50%

$$$$
>  <compound>
Cn1cnnc1CC1(c2cccc(-n3cc4c(C(F)(F)F)cc(CN5CCC(C6CCN(C(=O)c7ccc(N8CCN(c9ccc%10c(c9)CN([C@@H]9CCC(=O)NC9=O)C%10=O)CC8)cc7)CC6)CC5)cn4c3=O)c2)COC1

>  <reported result>
> 70%

$$$$
>  <compound>
Cn1cnnc1CC1(c2cccc(-n3cc4c(C(F)(F)F)cc(CN5CCC(CC(=O)N6CCC(CC7CCN(c8ccc9c(c8)CN([C@H]8CCC(=O)NC8=O)C9=O)CC7)CC6)CC5)cn4c3=O)c2)COC1 (single isomer, unassigned)

>  <reported result>
> 70%

$$$$
>  <compound>
Cn1cnnc1[C@@H](c1cccc(-n2cc3c(C(F)(F)F)cc(CN4CCC(CC(=O)N5CCC(CC6CCN(c7ccc8c(c7)CN([C@@H]7CCC(=O)NC7=O)C8=O)CC6)CC5)CC4)cn3c2=O)c1)C1CCC1

>  <reported result>
< 30%

$$$$
>  <compound>
Cn1cnnc1CC1(c2cccc(-n3cc4c(C(F)(F)F)cc(CN5CCC(CC(=O)N6CCC(CN7CCN(c8ccc9c(c8)CN([C@H]8CCC(=O)NC8=O)C9=O)CC7)CC6)CC5)cn4c3=O)c2)COC1

>  <reported result>
> 70%

$$$$
>  <compound>
Cn1cnnc1CC1(c2cccc(-n3cc4c(C(F)(F)F)cc(CN5CC(OCCN6CCC(CN7CCN(c8ccc9c(c8)CN(C8CCC(=O)NC8=O)C9=O)CC7)CC6)C5)cn4c3=O)c2)COC1 (stereo not drawn)

>  <reported result>
< 30%

$$$$
>  <compound>
Cn1cnnc1[C@@H](c1cccc(-n2cc3c(C(F)(F)F)cc(CN4CCC[C@H](COCc5ccc(CN6CCN(c7ccc8c(c7)CN([C@@H]7CCC(=O)NC7=O)C8=O)CC6)cc5)C4)cn3c2=O)c1)C1CCC1

>  <reported result>
30 to 50%

$$$$
>  <compound>
Cn1cnnc1[C@@H](c1cccc(N2Cc3c(cc(CN4CCC(OCCN5CCC(CN6CCN(c7ccc8c(c7)CN([C@H]7CCC(=O)NC7=O)C8=O)CC6)CC5)CC4)cc3C(F)(F)F)C2=O)c1)C1CCC1

>  <reported result>
50 to 70%

$$$$

Quick note, Dmax for Cn1cnnc1[C@@H](c1cccc(-n2cc3c(C(F)(F)F)cc(CN4CCC(OC(=O)N5CCC(CN6CCN(c7ccc8c(c7)CN([C@H]7CCC(=O)NC7=O)C8=O)CC6)CC5)CC4)cn3c2=O)c1)C1CCC1 landed at > 70%

###

biological target: Cbl-B (Homo sapiens, UniProt Q13191); construct: MSD-Based Assay for Degradation of Cbl-B in THP-1 Cells; endogenous in cells; host or cells: THP-1 (title) / Jurkat (protocol text); assay: MSD-based assay for degradation of Cbl-B in THP-1 cells; type: cell-based; settings: Cbl-B degradation, Jurkat cells seeded (heading: THP-1 cells), 24 hours incubation, MSD readout
measured endpoint: DC50

Reference set (2 entries):
>  <molecule>
Cn1cnnc1CC1(c2cccc(-n3cc4c(C(F)(F)F)cc(CN5CCN(CC(=O)N6CCC(CN7CCN(c8ccc9c(c8)CN([C@H]8CCC(=O)NC8=O)C9=O)CC7)CC6)CC5)cn4c3=O)c2)COC1 (single isomer, unassigned)

>  <DC50>
< 0.03 µM

$$$$
>  <molecule>
CN(CC1CCN(Cc2cc(C(F)(F)F)c3cn(-c4cccc(C5(Cc6nncn6C)COC5)c4)c(=O)n3c2)CC1)C(=O)c1ccc(C2CCN(c3ccc4c(c3)CN([C@H]3CCC(=O)NC3=O)C4=O)CC2)cc1

>  <DC50>
< 0.03 µM

$$$$

Below are 2 molecules. Give each one its DC50.
1. CO[C@H]1C[C@](c2cccc(-n3cc4c(C(F)(F)F)cc(CN5CCN(CCc6ccc(N7CCN(c8ccc9c(c8)CN([C@@H]8CCC(=O)NC8=O)C9=O)CC7)cc6)CC5)cn4c3=O)c2)(c2nncn2C)C1
2. CN(CCOC1CCN(Cc2cc(C(F)(F)F)c3cn(-c4cccc([C@H](c5nncn5C)C5CCC5)c4)c(=O)n3c2)CC1)C(=O)c1ccc(N2CCN(c3cccc4c3C(=O)N(C3CCC(=O)NC3=O)C4=O)CC2)cc1 (stereo partly shown)

1. 0.03 to 0.3 µM
2. > 10 µM

###

Target: Cbl-B (Homo sapiens)
Construct: MSD-Based Assay for Degradation of Cbl-B in THP-1 Cells; endogenous in cells; host or cells: THP-1 (title) / Jurkat (protocol text)
Assay: MSD-based assay for degradation of Cbl-B in THP-1 cells
Assay type: cell-based
Details: Cbl-B degradation, Jurkat cells seeded (heading: THP-1 cells), 24 hours incubation, MSD readout
Description: MSD-Based Assay for Degradation of Cbl-B in THP-1 Cells Assay plates were then shaken at 600 rpm for 5 minutes, followed by incubation for 24 hours in the 37° C. TC incubator. […] Cell debris was then spun down at maximum speed (about 3200 g) for 30 min and lysates frozen in the −80° C. fridge. […] Plates were again washed 3× with 150 ul/well of 1×TBST, followed by addition of 1×MSD reading buffer (MSD, R92TC-2), 150 ul/well, diluted from 4× with water. […]
Assign DC50 to each entry below.

>  <molecule>
Cn1cnnc1[C@@H](c1cccc(-n2cc3c(C(F)(F)F)cc(CN4CCN(CC(=O)N5CCC(CN6CCN(c7ccc8c(c7)CN([C@H]7CCC(=O)NC7=O)C8=O)CC6)CC5)CC4)cn3c2=O)c1)C1CCC1 (single isomer, unassigned)

>  <measured endpoint>
DC50

>  <reported result>
< 0.03 µM

$$$$
>  <molecule>
Cn1cnnc1CC1(c2cccc(-n3cc4c(C(F)(F)F)cc(CNCCOCCOCCNc5cccc6c5C(=O)N(C5CCC(=O)NC5=O)C6=O)cn4c3=O)c2)COC1 (stereo not shown)

>  <measured endpoint>
DC50

>  <reported result>
> 10 µM

$$$$
>  <molecule>
Cn1cnnc1[C@@H](c1cccc(-n2cc3c(C(F)(F)F)cc(CN4CCC(OCCCN5CCN(c6ccc7c(c6)CN([C@@H]6CCC(=O)NC6=O)C7=O)CC5)CC4)cn3c2=O)c1)C1CCC1 (single isomer, unassigned)

>  <measured endpoint>
DC50

>  <reported result>
> 10 µM

$$$$

Next up:
Quick note, DC50 for Cn1cnnc1[C@@H](c1cccc(N2Cc3c(cc(CN4CCC(OCCN5CCC(CN6CCN(c7ccc8c(c7)CN([C@@H]7CCC(=O)NC7=O)C8=O)CC6)CC5)CC4)cc3C(F)(F)F)C2=O)c1)C1CCC1 landed at 0.3 to 1 µM

###

target: Cbl-B (Homo sapiens); construct: MSD-Based Assay for Degradation of Cbl-B in THP-1 Cells; endogenous in cells; host or cells: THP-1 (title) / Jurkat (protocol text); experiment: MSD-based assay for degradation of Cbl-B in THP-1 cells; format: cell-based; details: Cbl-B degradation, Jurkat cells seeded (heading: THP-1 cells), 24 hours incubation, MSD readout; read-out: Dmax
measured endpoint: Dmax

Reference set (3 entries):
>  <molecule>
Cn1cnnc1CC1(c2cccc(-n3cc4c(C(F)(F)F)cc(CN5CCN(CC(=O)N6CCC(CN7CCN(c8ccc9c(c8)CN([C@@H]8CCC(=O)NC8=O)C9=O)CC7)CC6)CC5)cn4c3=O)c2)COC1 (single isomer, unassigned)

>  <target entity>
Cbl-B (Homo sapiens)

>  <reported result>
> 70%

$$$$
>  <molecule>
Cn1cnnc1CC1(c2cccc(-n3cc4c(C(F)(F)F)cc(CN5CCC(OCCOCc6ccc(CN7CCN(c8cccc9c8C(=O)N(C8CCC(=O)NC8=O)C9=O)CC7)cc6)CC5)cn4c3=O)c2)COC1 (stereo not shown)

>  <target entity>
Cbl-B (Homo sapiens)

>  <reported result>
< 30%

$$$$
>  <molecule>
Cn1cnnc1[C@@H](c1cccc(N2Cc3c(cc(CN4CCC[C@H](OCc5ccc(CC6CCN(c7ccc8c(c7)CN([C@H]7CCC(=O)NC7=O)C8=O)CC6)cc5)C4)cc3C(F)(F)F)C2=O)c1)C1CCC1

>  <target entity>
Cbl-B (Homo sapiens)

>  <reported result>
30 to 50%

$$$$

Below are 7 molecules. Give each one its Dmax.
1. Cn1cnnc1[C@@H](c1cccc(-n2cc3c(C(F)(F)F)cc(CN4CCC(OCc5ccc(CC6CCN(c7ccc8c(c7)CN([C@@H]7CCC(=O)NC7=O)C8=O)CC6)cc5)CC4)cn3c2=O)c1)C1CCC1 (single isomer, unassigned)
2. Cn1cnnc1[C@@H](c1cccc(-n2cc3c(C(F)(F)F)cc(CN4CCC(OCc5ccc(N6CCN(c7ccc8c(c7)CN([C@@H]7CCC(=O)NC7=O)C8=O)CC6)cc5)CC4)cn3c2=O)c1)C1CCC1 (single isomer, unassigned)
3. CN(CCOC1CCN(Cc2cc(C(F)(F)F)c3cn(-c4cccc([C@H](c5nncn5C)C5CCC5)c4)c(=O)n3c2)CC1)C(=O)c1ccc(N2C3CC2CN(c2ccc4c(c2)CN([C@H]2CCC(=O)NC2=O)C4=O)C3)cc1 (single isomer, unassigned)
4. Cn1cnnc1CC1(c2cccc(-n3cc4c(C(F)(F)F)cc(CN5CC[C@@H](OCCOCc6ccc(COCCNc7cccc8c7C(=O)N(C7CCC(=O)NC7=O)C8=O)cc6)C5)cn4c3=O)c2)COC1 (stereo partly shown)
5. Cn1cnnc1[C@@H](c1cccc(-n2cc3c(C(F)(F)F)cc(CN4CCN(CCc5ccc(C6CCN(c7ccc8c(c7)CN([C@@H]7CCC(=O)NC7=O)C8=O)CC6)cc5)CC4)cn3c2=O)c1)C1CCC1
6. Cn1cnnc1[C@@H](c1cccc(-n2cc3c(C(F)(F)F)cc(CN4CCC(CCN5CCC(CC6CCN(c7ccc8c(c7)CN([C@H]7CCC(=O)NC7=O)C8=O)CC6)CC5)CC4)cn3c2=O)c1)C1CCC1
7. Cn1cnnc1CC1(c2cccc(-n3cc4c(C(F)(F)F)cc(CN5CCC(CCN6CCC(CC7CCN(c8ccc9c(c8)CN([C@@H]8CCC(=O)NC8=O)C9=O)CC7)CC6)CC5)cn4c3=O)c2)COC1 (single isomer, unassigned)

1. 30 to 50%
2. < 30%
3. < 30%
4. 50 to 70%
5. 50 to 70%
6. > 70%
7. 50 to 70%
